# targetOrTestSystem: the molecule itself
# protocolDescription: SEC-SAXS
Catalogue of stoichiometry N values
Enter the number alone.

For orientation, consider the following solved cases.
- mouse myocilin leucine zipper construct mLZ_(93-171) (domain or fragment, UniProt O70624 93-171, looked up) VTGTQEAQEGLQGQLGALRRERDQLETQTRDLEAAYNNLLRDKSALEEEKRQLEQENEDLARRLESSSEEVTRLRRGQC: 2.2
- myocilin construct CC_(33-111) (domain or fragment, human, UniProt Q99972 33-111, looked up) RTAQLRKANDQSGRCQYTFSVASPNESSCPEQSQAMSVIHNLQRDSSTQRLDLEATKARLSSLESLLHQLTLDQAARPQ: 2.8
- myocilin coiled-coil construct CC_(60-185) (domain or fragment, human, UniProt Q99972 60-185, looked up) SCPEQSQAMSVIHNLQRDSSTQRLDLEATKARLSSLESLLHQLTLDQAARPQETQEGLQRELGTLRRERDQLETQTRELETAYSNLLRDKSVLEEEKKRLRQENENLARRLESSSQEVARLRRGQC: 4.9
- myocilin coiled-coil construct CC_(112-185) (domain or fragment, human, UniProt Q99972 112-185, looked up) ETQEGLQRELGTLRRERDQLETQTRELETAYSNLLRDKSVLEEEKKRLRQENENLARRLESSSQEVARLRRGQC: 2.4

Let's switch to this protein now.
## Task Bench note: what stoichiometry N did myocilin coiled-coil construct CC_(69-185) (domain or fragment, human, UniProt Q99972 69-185, looked up) SVIHNLQRDSSTQRLDLEATKARLSSLESLLHQLTLDQAARPQETQEGLQRELGTLRRERDQLETQTRELETAYSNLLRDKSVLEEEKKRLRQENENLARRLESSSQEVARLRRGQC show?
## Result 3.6
